These data points were gathered from ChEMBL document CHEMBL1201862.

- Test system: UACC-257
- Assay info: NCI tumour cell line growth inhibition, 48 h
The source made the active and inactive calls. Cut-off read from the data, not from the text of the source: active = GI50 up to about 1.1 µM and inactive = higher.
Tick one outcome: active, inactive

# example entries with known answers
- Compound: "O=C(CC(=O)c1cccc2ccccc12)C(=O)Nc1ccc(Cl)cc1"
  Group: "inactive"
- Compound: "N#Cc1c(N)nc2c(C#N)c(N)cc3c2c1Oc1ccccc1-3"
  Group: "inactive"
- Compound: "CCOC(=O)c1nc2ccc(C(F)(F)F)cc2nc1NCc1ccc(Cl)c(Cl)c1"
  Group: "inactive"
- Compound: "CN(C)CC(/C(Cc1ccccc1)=N\\NC(=O)C[n+]1ccccc1)c1ccccc1 (stereo not given)"
  Group: "inactive"

Assay outcome for Cc1ccc2c(O)cc(-c3ccccc3)nc2n1 : what was it?
active

Tell me the recorded outcome of this test for COc1ccc(CCC2NCCc3cc(OC)c(OC)cc32)cc1 (stereo not given) .
inactive

# lookup: test call for CN(/N=C/c1cccc2cccnc12)c1ccc([N+](=O)[O-])cc1[N+](=O)[O-]
inactive

Just curious, what result did CC(C)(C)c1ccc(-n2c3nc(=O)n(-c4ccccc4CO)c(=O)c-3cc3ccccc32)cc1 get here?
inactive

Hi, sorry to bother you, what did the test record for CC(C)OC(=O)C1=C(O)c2ccccc2S(=O)(=O)N1 ?
inactive

Dear colleague, could you share the recorded outcome for CN(COC(=O)C(C)(C)C)c1nc(N(C)COC(=O)C(C)(C)C)nc(N(C)COC(=O)C(C)(C)C)n1 when you have a moment?
inactive

====

- Test system: M14
- Assay info: NCI tumour cell line growth inhibition, 48 h
Calls of active or inactive are those of the source. No stated cut-off is given here; in the data, active = GI50 up to about 1.1 µM and inactive = higher.
Permitted responses: active, inactive

Would you please look over these solved cases?
- Compound: "COC1=C(C(c2cc(OC)c(OC)c(OC)c2)c2cc3c(cc2OC)OCO3)C(=O)OC1 (centres undefined)"
  Measured on: "M14"
  Group: "inactive"
- Compound: "Clc1ccc(C2=C(c3ccccc3)C(c3ccc(Cl)cc3)N3C(=N[C@H]4CCCC[C@@H]43)N2)cc1 (some centres undefined)"
  Measured on: "M14"
  Group: "inactive"
- Compound: "Cc1ccc(OCC(=O)N2N=C(c3ccccc3)CC2(O)c2ccccc2)cc1 (centres undefined)"
  Measured on: "M14"
  Group: "inactive"
- Compound: "O=C1C(=O)N(c2ccc(Cl)cc2Cl)C(=O)C(=O)C1c1nc2ccccc2s1"
  Measured on: "M14"
  Group: "inactive"
- Compound: "O=C(c1cccs1)N(C(=S)N1CCN(c2ccccc2)CC1)c1ccccc1"
  Measured on: "M14"
  Group: "inactive"
- Compound: "C/C(CC(=O)Nc1ccccc1[N+](=O)[O-])=N\\NC(N)=O"
  Measured on: "M14"
  Group: "inactive"
- Compound: "Nc1ccc(S(=O)(=O)Nc2nc3ccccc3nc2Nc2ccc(S(N)(=O)=O)cc2)cc1"
  Measured on: "M14"
  Group: "inactive"
- Compound: "CC(=O)OC1COC(n2c(N)c(C#N)c(C)c(C#N)c2=S)C(OC(C)=O)C1OC(C)=O (centres undefined)"
  Measured on: "M14"
  Group: "inactive"

For N#Cc1nn(-c2ccc(Cl)cc2)c(=N)c2c(N)n3nc(-c4ccccc4)cc3nc12 , what call appears in the results of this test?
active

====

- Test system: NCI-H460
- Assay info: NCI tumour cell line growth inhibition, 48 h
Active and inactive are the calls of the source. No stated cut-off is given here; in the data, active = GI50 up to about 1.1 µM and inactive = higher.
Please answer using one outcome listed in label 1 for active, label 0 for inactive

Give the logged outcome of this assay for the following molecule: O=C(CC(=O)c1cccc2ccccc12)C(=O)Nc1ccc(Cl)cc1
label 0

Dear colleague, could you share the recorded outcome for CC(C)N1CCN(c2ccncc2S(=O)(=O)N2CCCCC2)CC1 when you have a moment?
label 0

In this assay, the call recorded for CC(C)(Oc1ccc2c(=O)cc(-c3ccc(Cl)cc3)oc2c1)C(=O)Nc1c(Cl)cccc1Cl was what?
label 0

State the result this test recorded for Nc1nc(N)nc(CCCc2nc(N)nc(N)n2)n1 .
label 0

Hey, what did the test say about O=c1[nH]cc(/C=N\Nc2ccccc2)c(=O)[nH]1 ?
label 0

Hi team, can someone confirm the assay call for CC1(C)Oc2ccccc2OC1O (configuration not stated) ?
label 0

Answer briefly: the call reported for COc1cc2cnc3c4cc(OCc5ccccc5)ccc4ccc3c2cc1OC in this assay.
label 0

Please share the test call associated with Cc1[nH]c2c(c1Cc1ccccc1)C1=NC=C(O)NN1C=N2 .
label 0
